# Assay Remarks: 28-day repeat-dose oral toxicokinetics
# Format: in vivo, Bama minipig
# Settings: female, Bama, minipig, plasma, po, 1 g/kg, 1.0 g/kg/dose BID, Day 1, Female; mean ± SD; read-out: Cmax
Readout: Cmax
Quick note: unit goes after the number.

Inquiry: State the recorded Cmax for this entry: OC[C@@H](O)[C@@H](O)[C@@H](O)CO [ribitol, (2R,3s,4S)-Pentane-1,2,3,4,5-pentol]
Reply text: 261 µg/mL

---

# Assay Remarks: 28-day repeat-dose oral toxicokinetics
# Assay type: in vivo, CD-1 mouse
# Settings: male, CD-1, mouse, plasma, po, 1 g/kg, 1.0 g/kg/dose BID, Day 28, Male
Readout: Cmax (µg/mL)
Answer in µg/mL, number only, no unit symbol.

Inquiry: Cmax for OC[C@@H](O)[C@@H](O)[C@@H](O)CO ?
Reply text: 238

---

# Assay Remarks: 7-day repeat-dose oral toxicokinetics
# Format: in vivo, CD-1 mouse
# Settings: female, CD-1, mouse, plasma, po, 0.5 g/kg, 0.5 g/kg/dose BID, Day 1, F
# Description: Toxicokinetics were evaluated as part of a 7-day oral repeat-dose dose range finding study in CD-1 mice. […] On Days 1 and 7, blood was collected for plasma toxicokinetics (TK) from the treatment groups at 0 (pre-first dose), 0.5, 2, 4, 6 (pre-second dose), 6.5, 8, 10, 12, and 24 hours post-first dose. In the vehicle control group, blood was collected for plasma TK on Day 1 and Day 7 at 0.5 and 6.5 hours post-first dose.
Readout: Cmax (µg/mL)
A number alone suffices; assume µg/mL.

Inquiry: # get_value(readout='Cmax', item= OC[C@@H](O)[C@@H](O)[C@@H](O)CO )
Reply text: 141

---

# Assay Remarks: In vitro permeability study
# Format: in vitro ADME
# Settings: human, Caco-2; 300 μg/mL; read-out: apparent permeability A-to-B
Readout: Papp A→B at 300 μg/mL

Inquiry: Bench note: what Papp A→B at 300 μg/mL did OC[C@@H](O)[C@@H](O)[C@@H](O)CO [ribitol, (2R,3s,4S)-Pentane-1,2,3,4,5-pentol] show?
Reply text: < 0.4 ×10⁻⁶ cm/s

---

# Assay Remarks: 28-day repeat-dose oral toxicokinetics
# Assay type: in vivo, CD-1 mouse
# Settings: female, CD-1, mouse, plasma, po, 1.5 g/kg, 1.5 g/kg/dose BID, Day 1, Female
Readout: Cmax (µg/mL)
Response body: numeric value in µg/mL, unit text excluded.

Inquiry: Which Cmax value is on record for OC[C@@H](O)[C@@H](O)[C@@H](O)CO ?
Reply text: 334

---

# Assay Remarks: 7-day repeat-dose oral toxicokinetics
# Assay type: in vivo, CD-1 mouse
# Settings: male, CD-1, mouse, plasma, po, 1.5 g/kg, 1.5 g/kg/dose BID, Day 7, M
Readout: Tmax (h)
Field format: number, assumed h, no unit text.

Inquiry: Param item = OC[C@@H](O)[C@@H](O)[C@@H](O)CO ; retrieve measured Tmax.
Reply text: 6.5

---

# Assay Remarks: 7-day repeat-dose oral toxicokinetics
# Assay type: in vivo, Bama minipig
# Settings: male, Bama, minipig, plasma, po, 1 g/kg, 1.0 g/kg BID, Day 7, M; read-out: AUC0-24
Readout: AUC(0-t) (µg·h/mL)
Kindly answer with a numeric value in µg·h/mL, unit omitted.

Inquiry: Entry OC[C@@H](O)[C@@H](O)[C@@H](O)CO [ribitol, (2R,3s,4S)-Pentane-1,2,3,4,5-pentol] has what AUC(0-t)?
Reply text: 1920
